// provenance: patent US9260485B2

Listed below: pEC50 values for each entry.
Test system: HCT15 colorectal carcinoma cancer cell line
PROTOCOL SUMMARY: In vitro cytotoxicity, SRB method
Format: cell-based, Human
EXPERIMENTAL PARAMETERS: read-out: EC50 (concentration inhibiting cell growth in vitro by 50%); HCT15
When answering, recall that pEC50 equals minus log10 of the concentration in mol/L, and write that number alone.

[
  {
    "COMPOUND": "CCC(C)C[C@H]1OC(=O)[C@H](C(C)C)N(C)C(=O)[C@@H](CC(C)C)OC(=O)[C@H](C(C)C)N(C)C(=O)[C@@H](C(C)C)OC(=O)[C@H](C(C)C)N(C)C1=O (stereo partly drawn)",
    "EXPERIMENTAL RESULT": 4.85
  }
]

Query: Look at this compound and give its reported pEC50. CC[C@H](C)[C@H]1OC(=O)[C@H](C(C)C)N(C)C(=O)[C@@H](C(C)C)OC(=O)[C@H](C(C)C)N(C)C(=O)[C@@H](C(C)C)OC(=O)[C@H](C(C)C)N(C)C1=O
Response: 4.78

Query: Look at this compound and give its reported pEC50. CC[C@H](C)[C@H]1OC(=O)[C@H](C(C)C)N(C)C(=O)[C@@H](C(C)C)OC(=O)[C@H](C(C)C)N(C)C(=O)[C@@H]([C@@H](C)CC)OC(=O)[C@H](C(C)C)N(C)C1=O
Response: 5.25
